System: HL-60(TB) leukemia
Experiment: NCI tumour cell line growth inhibition, 48 h
QUANTITY_KIND: TGI

Here are 2 compounds together with their reported answers.
compound="Nc1ccn(C2OC(CO)C(O)C2O)c(=O)c1 (stereo not drawn)" study_target="HL-60(TB) leukemia" quantity_kind=TGI assay_value="> 625 µM"
compound=Cn1c2ccccc2c(=O)c2ccc(Cl)cc21 study_target="HL-60(TB) leukemia" quantity_kind=TGI assay_value="> 10 µM"

Now examine the next entry.
Challenge: Tell us which TGI value is on record for C/C(N=NC(=S)N(C)C)=C1\C=CC=CN1O
Response given: > 53 µM

----------
Item-by-item account of TGI
System: SF-539 CNS
Assay: NCI tumour cell line growth inhibition, 48 h
Give the number; µM is assumed, so skip it.

compound="C1CCC([PH+](C2CCCCC2)C2CCCCC2[PH+](C2CCCCC2)C2CCCCC2)CC1.O=C(C1[CH-]CCCC1)C1CCCC[N-]1.[Au] (stereo not given)" assay_value=1.28

Challenge: Name the recorded TGI of the item CN(C)c1ccc(C2SCC(=O)N2c2ccc(Oc3ccc(Cl)cc3)c(Cl)c2)cc1 (stereo not given) in your answer.
Response given: 40.4

Challenge: Using the record for O=C1CC2c3ccccc3CCC2c2ccccc21 (stereo not given) , state its measured TGI.
Response given: 53.3

----------
Tested on: HT29 colon
Assay: NCI tumour cell line growth inhibition, 48 h
QUANTITY_KIND: TGI

Example entries and their recorded answers appear below.
molecule=CCOc1ccc(/C=C2/C(=O)N=C(NC(C)=O)N2C)cc1 assay_value="> 100 µM"
molecule=COc1cc(C(=O)c2cc(C)c3[nH]c4ccc(C)cc4c3c2C)cc(OC)c1OC assay_value="1.62 µM"
molecule=CCCSc1nc(COC(=O)NC)c(COC(=O)NC)n1C assay_value="> 100 µM"
molecule=O=c1cccc(C#CC#CC2=CCCCC2)o1 assay_value="> 100 µM"
molecule=CCN(CC)c1ccc(N=Nc2ccc(-c3nc4ccc[n+](C)c4s3)cc2)cc1 assay_value="18.5 µM"

Challenge: Report TGI from HT29 colon testing of NC(CCC(=O)NC(CSCC1C(=O)Nc2ccccc21)C(=O)NCC(=O)O)C(=O)O (configuration not stated)
Response given: 14.7 µM

Challenge: Quote TGI with test system HT29 colon for Nc1ccn(C2OC(CO)C(O)C2O)c(=O)c1 (configuration not stated)
Response given: > 625 µM

Challenge: State measured TGI of the molecule CC1=NNC(=O)C1C(CC(=O)c1c[nH]c2ccccc12)C(=O)O (configuration not stated) with HT29 colon.
Response given: > 100 µM

----------
Tested on: RXF 393 renal
Experiment: NCI tumour cell line growth inhibition, 48 h
Below, each entry is listed with its recorded TGI.

Please review the entries below; each comes with its answer.
compound=O=c1oc2ccc([N+](=O)[O-])cc2c(Nc2ccc3c(c2)Oc2ccccc2O3)c1[N+](=O)[O-] quantity_kind=TGI assay_value="> 100 µM"
compound=CCSc1nc(SCC)c2cn[nH]c2n1 quantity_kind=TGI assay_value="> 100 µM"
compound="CN1C2CCC1CC(C)(O)C2 (stereo unspecified)" quantity_kind=TGI assay_value="> 100 µM"
compound=COc1ccc(/C=C2\N=C(SC)NC2=O)cc1 quantity_kind=TGI assay_value="> 100 µM"

Challenge: Give TGI for the following compound: C#C[C@]1(O)CC[C@H]2[C@@H]3CCC4=C/C(=N/OC(=O)c5cccc6c(=O)c7ccccc7[nH]c56)CC[C@@H]4[C@H]3CC[C@@]21C
Response given: > 100 µM

Challenge: Please report TGI for the following compound: COC(=O)C1=C(C)NC(C)=C(C(=O)OC)C1c1nc2sccn2c1[N+](=O)[O-]
Response given: > 100 µM
